Taken from patent US7074789B2.

# pIC50 values compiled below
# System under test: AKT (Homo sapiens, UniProt Q9Y243)
# Construct: Kinases are expressed as either kinase domains or full length constructs; made in house
# Sequence (Q9Y243 whole entry, the tested form may be a part): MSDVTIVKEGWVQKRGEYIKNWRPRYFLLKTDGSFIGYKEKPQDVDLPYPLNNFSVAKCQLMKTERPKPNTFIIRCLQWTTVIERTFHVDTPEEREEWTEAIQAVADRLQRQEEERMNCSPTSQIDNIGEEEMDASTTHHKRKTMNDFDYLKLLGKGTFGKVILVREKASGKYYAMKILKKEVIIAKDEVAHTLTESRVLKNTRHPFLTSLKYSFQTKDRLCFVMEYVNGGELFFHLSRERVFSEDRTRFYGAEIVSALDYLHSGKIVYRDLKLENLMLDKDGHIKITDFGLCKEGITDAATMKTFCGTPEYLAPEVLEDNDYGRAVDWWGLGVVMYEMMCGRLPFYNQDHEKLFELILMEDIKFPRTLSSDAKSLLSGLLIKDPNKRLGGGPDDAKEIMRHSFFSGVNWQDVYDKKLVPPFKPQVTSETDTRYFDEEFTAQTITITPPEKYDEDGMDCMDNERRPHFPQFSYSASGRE
# Protocol details: Kinase inhibition assay (33P transfer), AKT
# Assay type: biochemical
# Protocol conditions: Table 2, kinase inhibition class; read-out: AKT3-1
pIC50: −log10 of the molar value.

{"columns": ["Molecule", "System under test", "pIC50"],
 "data": [
  ["COc1cc(Nc2ncnc(Nc3cc(-c4ccc(C(=O)NCCc5ccccc5)cc4)n[nH]3)n2)cc(OC)c1OC [Compound 1006]", "AKT (Homo sapiens, UniProt Q9Y243)", "< 5.10"],
  ["COc1cc(Nc2ncnc(N(C)c3cccc4ccccc34)n2)cc(OC)c1OC [Compound 607]", "AKT (Homo sapiens, UniProt Q9Y243)", "< 4.97"],
  ["COc1cc(Nc2ncnc(Nc3cccc(Cl)c3)n2)cc(OC)c1OC [Compound 135]", "AKT (Homo sapiens, UniProt Q9Y243)", "< 4.94"],
  ["COc1cc(Nc2ncnc(Nc3cccc(OCc4ccccc4)c3)n2)cc(OC)c1OC [Compound 73]", "AKT (Homo sapiens, UniProt Q9Y243)", "< 5.01"],
  ["COc1ccc2c(c1)c(CCNC(C)=O)cn2-c1ncnc(Nc2cc(OC)c(OC)c(OC)c2)n1 [Compound 339]", "AKT (Homo sapiens, UniProt Q9Y243)", "< 5.04"],
  ["COc1cc(Nc2ncnc(-n3c(=O)[nH]c4ccccc43)n2)cc(OC)c1OC [Compound 325]", "AKT (Homo sapiens, UniProt Q9Y243)", "< 4.94"],
  ["c1ccc(-c2ncnc(Nc3ccc(OCCCN4CCOCC4)cc3)n2)cc1 [Compound 154]", "AKT (Homo sapiens, UniProt Q9Y243)", "< 4.94"],
  ["Fc1cccc(Nc2ncnc(-c3cccs3)n2)c1 [Compound 1073]", "AKT (Homo sapiens, UniProt Q9Y243)", "< 4.78"],
  ["COc1cc(Nc2ncnc(-n3c(Nc4ccccc4C)nc4ccccc43)n2)cc(OC)c1OC [Compound 384]", "AKT (Homo sapiens, UniProt Q9Y243)", "< 5.03"],
  ["COc1cc(Nc2ncnc(N3CCN(c4ncccn4)CC3)n2)cc(OC)c1OC [Compound 214]", "AKT (Homo sapiens, UniProt Q9Y243)", "< 4.97"],
  ["COc1cc(Nc2ncnc(-n3c(NCc4ccc([N+](=O)[O-])cc4)nc4ccccc43)n2)cc(OC)c1OC [Compound 952]", "AKT (Homo sapiens, UniProt Q9Y243)", "< 5.07"],
  ["COc1ccc(Nc2ncnc(NC[C@@H]3CCCO3)n2)cc1OC [Compound 790]", "AKT (Homo sapiens, UniProt Q9Y243)", "< 4.87"],
  ["COC(=O)Cc1cccc(Nc2ncnc(-n3c(N)nc4ccccc43)n2)c1 [Compound 546]", "AKT (Homo sapiens, UniProt Q9Y243)", "4.92 to 5.03"],
  ["COc1ccccc1Nc1nc2ccccc2n1-c1ncnc(Nc2cc(OC)c(OC)c(OC)c2)n1 [Compound 398]", "AKT (Homo sapiens, UniProt Q9Y243)", "< 5.05"],
  ["COc1cc(Nc2ncnc(N(c3ccccc3)c3nc4ccccc4[nH]3)n2)cc(OC)c1OC [Compound 335]", "AKT (Homo sapiens, UniProt Q9Y243)", "< 5.02"],
  ["NC(=O)[C@H](CO)Nc1ncnc(-n2c(=O)[nH]c3ccccc32)n1 [Compound 450]", "AKT (Homo sapiens, UniProt Q9Y243)", "< 4.85"],
  ["Fc1ccccc1Nc1ncnc(-c2ccccc2)n1 [Compound 20]", "AKT (Homo sapiens, UniProt Q9Y243)", "< 4.77"],
  ["COC(=O)c1ccc(-c2cc(Nc3ncnc(Nc4cc(OC)c(OC)c(OC)c4)n3)[nH]n2)cc1 [Compound 523]", "AKT (Homo sapiens, UniProt Q9Y243)", "< 5.03"],
  ["COc1cc(Nc2ncnc(Nc3ccccc3F)n2)cc(OC)c1OC [Compound 65]", "AKT (Homo sapiens, UniProt Q9Y243)", "< 4.92"],
  ["COc1cc(Nc2ncnc(N(C)c3ccc4c(cnn4Cc4ccccc4)c3)n2)cc(OC)c1OC [Compound 566]", "AKT (Homo sapiens, UniProt Q9Y243)", "< 5.04"],
  ["COC(=O)c1ccc(Nc2ncnc(Nc3cc(-c4ccco4)n[nH]3)n2)cc1 [Compound 366]", "AKT (Homo sapiens, UniProt Q9Y243)", "< 4.92"],
  ["CC(C)(C)c1cc(Nc2ncnc(Nc3cccc(CO)c3)n2)[nH]n1 [Compound 499]", "AKT (Homo sapiens, UniProt Q9Y243)", "< 4.88"],
  ["COc1cc(Nc2ncnc(Nc3ccc(C)cc3F)n2)cc(OC)c1OC [Compound 937]", "AKT (Homo sapiens, UniProt Q9Y243)", "< 4.93"],
  ["COc1cc(Nc2ncnc(Nc3ccc(O)cc3Cl)n2)cc(OC)c1OC [Compound 77]", "AKT (Homo sapiens, UniProt Q9Y243)", "< 4.95"],
  ["COc1cc(Nc2ncnc(-n3c(NCc4cccc(Cl)c4)nc4ccccc43)n2)cc(OC)c1OC [Compound 949]", "AKT (Homo sapiens, UniProt Q9Y243)", "< 5.06"],
  ["OCc1ccc(Nc2ncnc(-c3ccccc3)n2)cc1 [Compound 165]", "AKT (Homo sapiens, UniProt Q9Y243)", "< 4.79"],
  ["Nc1nc2ccccc2n1-c1ncnc(Nc2cccc(CC(=O)NCc3ccccn3)c2)n1 [Compound 956]", "AKT (Homo sapiens, UniProt Q9Y243)", "< 5.00"],
  ["O=c1[nH]c2ccccc2n1-c1ncnc(Nc2ccc(Br)c(Cl)c2)n1 [Compound 483]", "AKT (Homo sapiens, UniProt Q9Y243)", "< 4.97"],
  ["Cc1cccc(Nc2ncnc(N(C)c3cccc(Br)c3)n2)c1 [Compound 666]", "AKT (Homo sapiens, UniProt Q9Y243)", "< 4.92"],
  ["COc1cc(Nc2ncnc(-c3ccnc(Cl)c3)n2)cc(OC)c1OC [Compound 331]", "AKT (Homo sapiens, UniProt Q9Y243)", "< 4.92"],
  ["COc1cc(Nc2ncnc(-n3c(NCCCc4ccccc4)nc4ccccc43)n2)cc(OC)c1OC [Compound 945]", "AKT (Homo sapiens, UniProt Q9Y243)", "< 5.06"],
  ["CC(C)(C)c1cc(Nc2ncnc(Nc3ccc(CC(=O)O)cc3)n2)[nH]n1 [Compound 980]", "AKT (Homo sapiens, UniProt Q9Y243)", "5.18 to 5.96"],
  ["COc1cc(Nc2ncnc(Nc3n[nH]c(Nc4ccc(Cl)cc4)n3)n2)cc(OC)c1OC [Compound 1003]", "AKT (Homo sapiens, UniProt Q9Y243)", "< 5.02"],
  ["COCCOc1ccc(Nc2ncnc(-n3c(N)nc4ccccc43)n2)cc1OCCOC [Compound 302]", "AKT (Homo sapiens, UniProt Q9Y243)", "< 5.00"],
  ["NC(=O)Cc1cccc(Nc2ncnc(Nc3cc(-c4ccccc4)n[nH]3)n2)c1 [Compound 578]", "AKT (Homo sapiens, UniProt Q9Y243)", "< 4.93"]
]}

---

# System under test: AKT (Homo sapiens)
# Construct: Kinases are expressed as either kinase domains or full length constructs; made in house
# Protocol details: Kinase inhibition assay (33P transfer), AKT
# Format: biochemical
# Protocol conditions: Table 2, kinase inhibition class; read-out: AKT3-1
# Text: The inhibitor compounds described herein are screened in the following manner. […] Kinases are expressed as either kinase domains or full length constructs fused to glutathione S-transferase (GST) or polyHistidine tagged fusion proteins in either E. colior Baculovirus-High Five expression systems. […]
// IC50 lookup, one value per entry

{"columns": ["Compound", "System under test", "IC50"],
 "data": [
  ["COc1ccc(Nc2ncnc(N3CCCc4ccc(C(F)(F)F)cc43)n2)cc1OC [Compound 535]", "AKT (Homo sapiens)", "> 10.4 µM"],
  ["COc1cc(Nc2ncnc(-n3c(N)nc4ccccc43)n2)cc(OC)c1 [Compound 477]", "AKT (Homo sapiens)", "> 12.4 µM"],
  ["COc1cc(Nc2ncnc(Nc3nnc(-c4ccccc4)[nH]3)n2)cc(OC)c1OC [Compound 311]", "AKT (Homo sapiens)", "> 10.7 µM"],
  ["O=c1[nH]c2ccccc2n1-c1ncnc(Nc2ccccn2)n1 [Compound 487]", "AKT (Homo sapiens)", "> 14.7 µM"],
  ["COc1cc(Nc2ncnc(Nc3cc(-c4cccc(C(F)(F)F)c4)n[nH]3)n2)cc(OC)c1OC [Compound 1000]", "AKT (Homo sapiens)", "7.18 to 9.23 µM"],
  ["COc1cc(Nc2ncnc(N3c4ccc(F)cc4CCC3C)n2)cc(OC)c1OC (centres unmarked) [Compound 298]", "AKT (Homo sapiens)", "> 10.6 µM"],
  ["CN(c1cccc(Cl)c1)c1ncnc(Nc2cccc(Cc3nnn[nH]3)c2)n1 [Compound 720]", "AKT (Homo sapiens)", "> 11.4 µM"],
  ["COc1cc(Nc2ncnc(Nc3cccc(F)c3)n2)cc(OC)c1OC [Compound 304]", "AKT (Homo sapiens)", "> 12.1 µM"],
  ["COc1cc(Nc2ncnc(-n3c(N[C@@H](CO)c4ccccc4)nc4ccccc43)n2)cc(OC)c1OC [Compound 1036]", "AKT (Homo sapiens)", "> 8.76 µM"],
  ["COc1cc(Nc2ncnc(-n3ccc4cc(OCc5ccccc5)ccc43)n2)cc(OC)c1OC [Compound 200]", "AKT (Homo sapiens)", "> 9.31 µM"],
  ["COc1cc(Nc2ncnc(Nc3ccc(C)c(N)c3)n2)cc(OC)c1OC [Compound 935]", "AKT (Homo sapiens)", "> 11.8 µM"],
  ["COc1cccc(Nc2nc3ccccc3n2-c2ncnc(Nc3cc(OC)c(OC)c(OC)c3)n2)c1 [Compound 415]", "AKT (Homo sapiens)", "> 9.01 µM"],
  ["Cc1ccc2c(c1)CCCN2c1ncnc(NCCCn2ccnc2)n1 [Compound 772]", "AKT (Homo sapiens)", "> 12.9 µM"],
  ["COc1cc(Nc2ncnc(Nc3cccc(O)c3)n2)cc(OC)c1OC [Compound 78]", "AKT (Homo sapiens)", "> 12.2 µM"],
  ["COc1cccc(NC(=O)Nc2ncnc(Nc3cc(OC)c(OC)c(OC)c3)n2)c1 [Compound 21]", "AKT (Homo sapiens)", "> 10.6 µM"],
  ["COc1cc(Nc2ncnc(N(CC(=O)OC(C)(C)C)c3ccc4c(c3)OCO4)n2)cc(OC)c1OC [Compound 309]", "AKT (Homo sapiens)", "> 8.8 µM"],
  ["COc1cc(Nc2ncnc(-n3c(Nc4cccc(C(N)=O)c4)nc4ccccc43)n2)cc(OC)c1OC [Compound 377]", "AKT (Homo sapiens)", "> 8.78 µM"]
]}
